Test system: Lefty1
Experiment: Lefty1 binders on small-molecule microarrays, primary screen, biochemical, small-molecule microarray, 635/667 nm fluorescence (AID 1139)
Details: small-molecule microarray binding, fluorescence 635/667; higher = more signal
# label = yes (1) if composite z-score >= -0.7 else no (0)

{"COMPOUND": "COC(=O)[C@@]1(Cc2ccccc2CN=[N+]=[N-])N=C(c2ccc(OCCCO)cc2)O[C@H]1c1ccccc1CN=[N+]=[N-]", "CATEGORY": "no (0)"}
{"COMPOUND": "COC(=O)[C@@]1(Cc2ccc(F)cc2)[C@H]2c3cc(C(=O)N(C)C)n(Cc4c(CO)[nH]cc(C)c4=O)c3C[C@H]2CN1C(=O)c1ccccc1", "CATEGORY": "yes (1)"}
{"COMPOUND": "COCCOC(=O)N1C(=O)[C@@]2(c3cc(C#CC4=CCCCC4)ccc31)[C@H](C(=O)N1CCCCCCC1)[C@H]1C(=O)O[C@H](c3ccccc3)[C@H](c3ccccc3)N1[C@@H]2c1ccc(OCCO)cc1", "CATEGORY": "yes (1)"}
{"COMPOUND": "COCCOC(=O)N1C(=O)[C@@]2(c3cc(C#CCNC(N)=O)ccc31)[C@H](c1ccc(O)cc1)N1[C@H](c3ccccc3)[C@H](c3ccccc3)OC(=O)[C@H]1[C@@H]2C(N)=O", "CATEGORY": "no (0)"}
{"COMPOUND": "CC1CC/C=C\\[C@H]2OC34C=CCN(C(C)(C)C)C(=O)[C@H]3N(C(CO)C(C)C)C(=O)[C@@H]4C2C(=O)O1 (some centres not stated)", "CATEGORY": "yes (1)"}

Now for a further compound.
Can CC(C)(C)OC(=O)CC[C@]12N=C(c3ccc(OCCCO)cc3)O[C@H]1c1ccccc1N(Cc1ccccc1)C2=O be said to have composite z-score at or above -0.7? yes (1)
